- System: HEK-293T
- test_summary: Incucyte cell viability with HEK293T; note: filed as whole numbers so only -1 and 0 and 1 occur
- Assay type: toxicity, cell-based
- condition_notes: human, 0 h, 10 µM, compound concentration 10 uM, replicate number 1, timepoint 0 hours
Quick list: Growth Rate per entry.
Format: numeric value only, no unit, no commentary.

# input Requested field: Growth Rate. Item: CC(C)CC(=O)N1CCc2nc(-c3ccc(Br)cc3)nc(N(C)Cc3ccccc3)c2C1
# output 0

# input Here is the next compound: CN1CC(=O)N=C1NC(=O)Nc1cccc(Cl)c1 [FENOBAM ANHYDROUS]
# output 0

---

- Tested on: Fibroblast
- test_summary: Multiplex assay against human fibroblast
- Type: toxicity, cell-based
- condition_notes: 48 h, 10 µM, compound concentration 10 uM, replicate 2
Listed compounds paired with reported Population Mitochondria Different-Phenotype (%)
// return numeric value only (unit: %, not printed)

Cc1nc(Cc2cccc(C(F)(F)F)c2)sc1-c1ccc(C(N)=O)nc1 [TP-024n]; 7
O=C(O)c1ccc2cc(-c3ccc(O)c(C45CC6CC(CC(C6)C4)C5)c3)ccc2c1 [O-DEMETHYLATED ADAPALENE]; 4

API: the following record is the query input.
# input Please give the measured Population Mitochondria Different-Phenotype (%) for this compound: CC(C)Oc1ccc(C(=O)N[C@H](CNC(=O)CN(C)C)Cc2ccc(-c3cn4cccc([C@H](C)O)c4n3)cc2)cc1Cl [GSK-923295A]
# output 6

---

- Test system: Fibroblast
- test_summary: Multiplex assay against human fibroblast
- Type: toxicity, cell-based
- condition_notes: 24 h, 10 µM, compound concentration 10 uM, replicate 2
List of Population Mitotic Cells (%) values.
Answer in %, number only, no unit symbol.

Some compounds with recorded Population Mitotic Cells (%):
CNc1oc(-c2cccc3ccccc23)nc1C#N; 18
Cl.Cl.Nc1ncnc2c1c(-c1cccc(OCc3ccccc3)c1)cn2[C@H]1C[C@@H](CN2CCC2)C1; 7
Cl.Cl.NC1(c2ccc(-c3nc4ccn5c(=O)[nH]nc5c4cc3-c3ccccc3)cc2)CCC1; 16

Now take the following compound into account.
# input Endpoint output: Population Mitotic Cells (%) of CCn1c(-c2nonc2N)nc2cnc(Oc3cccc(NC(=O)c4ccc(OCCN5CCOCC5)cc4)c3)cc21 [GSK-269962A] . Value?
# output 46

---

- System: U2OS
- test_summary: Incucyte cell viability with U2OS; note: filed as whole numbers so only -1 and 0 and 1 occur
- Format: toxicity, cell-based
- condition_notes: human, 24 h, 10 µM, compound concentration 10 uM, replicate number 1, timepoint 24 hours
Listing: Growth Rate of selected compounds
Write the number on its own, no unit after it.

CC1(C)CNc2cc(NC(=O)c3cccnc3NCc3ccncc3)ccc21.O=P(O)(O)O.O=P(O)(O)O [MOTESANIB DIPHOSPHATE]; 1
C[C@H]1CCCN1Cc1nc2cc(NC(=O)c3ccc4cnccc4c3)ccc2[nH]1; 1
O=C(Nc1cccnc1)c1cc(-c2ccnc(F)c2)ccc1OCc1ccccc1; 0

# input Item under review: Cl.Cl.NC1(c2ccc(-c3nc4ccn5c(=O)[nH]nc5c4cc3-c3ccccc3)cc2)CCC1 . Reported Growth Rate?
# output 1

# input Note, next up: CCc1cc2c(cc1CC)CC(NC[C@H](O)c1ccc(O)c3[nH]c(=O)ccc13)C2
# output 0

# input Also, Cc1cn(-c2cc(NC(=O)c3ccc4c(c3)CN(c3cncnc3)C[C@@H]4C)cc(C(F)(F)F)c2)cn1 please.
# output 0

# input What about CC(C)(C)c1cnc(CSc2cnc(NC(=O)C3CCNCC3)s2)o1 ?
# output 0

# input Another compound to look at: O=C(O)COc1cccc(CN(Cc2ccc(-n3cccn3)cc2)S(=O)(=O)c2cccnc2)c1
# output 1

# input Repeat with CN1CC(=O)N=C1NC(=O)Nc1cccc(Cl)c1 [FENOBAM ANHYDROUS]
# output 1

# input Also need Cc1cc2c(cc1N1C(=O)c3cccc4c(CCCO)ccc(c34)C1=O)n(C)c(=O)n2C , thanks.
# output 0

---

Growth Rate: recorded values
- System: HEK-293T
- test_summary: Incucyte cell viability with HEK293T; note: filed as whole numbers so only -1 and 0 and 1 occur
- Format: toxicity, cell-based
- condition_notes: human, 6 h, 10 µM, compound concentration 10 uM, replicate number 1, timepoint 6 hours

Cc1cc(NC(=O)Nc2ccc(N(C)C)cc2)c2cc(F)cc(F)c2n1; 0

# input Look up Growth Rate: CC(=O)N1CCC(c2ccc(C(=O)NC3=NCCN3)cc2C(F)(F)F)CC1 [BI 0054]
# output 1

# input And COc1cc2c(NC3CCN(C(C)C)CC3)nc(N3CCC(F)(F)CC3)nc2cc1OCCCN1CCCC1 ?
# output 0

---

- System: Fibroblast
- test_summary: Multiplex assay against human fibroblast
- Type: toxicity, cell-based
- condition_notes: 48 h, 10 µM, compound concentration 10 uM, replicate 2
Overview of reported Population Mitotic Cells (%) across a group of molecules:
Only the number, expressed in %, is required.

Example entries begin here.
O=C(O)c1ccc2cc(-c3ccc(O)c(C45CC6CC(CC(C6)C4)C5)c3)ccc2c1; 33
COc1cc2c(NC3CCN(C(C)C)CC3)nc(N3CCC(F)(F)CC3)nc2cc1OCCCN1CCCC1; 76
CC(C)Oc1ccc(C(=O)N[C@H](CNC(=O)CN(C)C)Cc2ccc(-c3cn4cccc([C@H](C)O)c4n3)cc2)cc1Cl [GSK-923295A]; 42
CCc1cc2c(cc1CC)CC(NC[C@H](O)c1ccc(O)c3[nH]c(=O)ccc13)C2; 33
Cl.Cl.Nc1ncnc2c1c(-c1cccc(OCc3ccccc3)c1)cn2[C@H]1C[C@@H](CN2CCC2)C1; 18
Cc1nc(Cc2cccc(C(F)(F)F)c2)sc1-c1ccc(C(N)=O)nc1 [TP-024n]; 75

# input Item CNC(=O)c1nn(C)c2c1C(C)(C)Cc1cnc(Nc3ccc(N4CCN(C)CC4)cc3)nc1-2 has what recorded Population Mitotic Cells (%)?
# output 33

---

- System: HEK-293T
- test_summary: Multiplex assay against HEK293T
- Assay type: toxicity, cell-based
- condition_notes: human, 24 h, 1 µM, compound concentration 1 uM, replicate 2
Form field: Population Hoechst High Intensity Objects (%) (one value per entry).
Write the answer as a number in %, unit excluded.

A selection of reference data follows.
CC(=O)c1cc(-c2cc(C(=O)NC3CC3)ccc2C)c2ncccn12; 2
CC(C)Oc1ccc(C(=O)N[C@H](CNC(=O)CN(C)C)Cc2ccc(-c3cn4cccc([C@H](C)O)c4n3)cc2)cc1Cl [GSK-923295A]; 4
Cl.Cl.Nc1ncnc2c1c(-c1cccc(OCc3ccccc3)c1)cn2[C@H]1C[C@@H](CN2CCC2)C1; 5
COc1cc(N2CCC(N(C)C)CC2)ccc1Nc1ncc(Cl)c(Nc2ccccc2P(C)(C)=O)n1; 4
O=C(O)c1ccc2cc(-c3ccc(O)c(C45CC6CC(CC(C6)C4)C5)c3)ccc2c1; 1
COc1cc2c(NC3CCN(C(C)C)CC3)nc(N3CCC(F)(F)CC3)nc2cc1OCCCN1CCCC1; 12
CNC(=O)c1cc(Oc2ccc(NC(=O)Nc3cc(C(C)(C)C)nn3-c3ccc4ncccc4c3)c(F)c2)ccn1; 8
CNc1oc(-c2cccc3ccccc23)nc1C#N; 14

# input I would be grateful if you could share the reported Population Hoechst High Intensity Objects (%) for N#Cc1cnc(Nc2cc(NC[C@H]3CNCCO3)c(C(F)(F)F)cn2)cn1 .
# output 4

# input What would you report for CC(C)N1CCC(C)(C)c2cc(C#Cc3ccc(C(=O)O)cc3)ccc21 ?
# output 4

# input Also check CCCn1c(=O)c2[nH]c(C34CC5CC(CC3C5)C4)nc2n(CCC)c1=O
# output 3

# input What do you get for CCOc1cc(N2CCC(O)CC2)ccc1Nc1ncc2c(n1)N(C1CCCC1)CCC(=O)N2C ?
# output 3

# input Next record, please: c1ccc2oc(-c3csc(C4CCN(Cc5nc6ncccc6[nH]5)CC4)n3)cc2c1
# output 6

# input Entry Cl.Cl.NC1(c2ccc(-c3nc4ccn5c(=O)[nH]nc5c4cc3-c3ccccc3)cc2)CCC1 please
# output 7

# input Check COc1cc2c(Nc3ccc(NC(=O)c4ccccc4)cc3)ncnc2cc1OCCCN1CCOCC1 too.
# output 6

# input Entry CCn1c(-c2nonc2N)nc2cnc(Oc3cccc(NC(=O)c4ccc(OCCN5CCOCC5)cc4)c3)cc21 [GSK-269962A] please
# output 3

# input Entry to check: Nc1ccc(C(=O)Nc2cccc(-c3nc(N4CCOCC4)c4oc5ncccc5c4n3)c2)cn1
# output 8

---

- Test system: HEK-293T
- test_summary: Multiplex assay against HEK293T
- Assay type: toxicity, cell-based
- condition_notes: human, 48 h, 1 µM, compound concentration 1 uM, replicate 1
recorded_endpoint: Population Apoptotic (%)
Answer shape: numeric part, then the unit.

Cc1nc(Cc2cccc(C(F)(F)F)c2)sc1-c1ccc(C(N)=O)nc1 [TP-024n]; 32%
COc1cc2c(NC3CCN(C(C)C)CC3)nc(N3CCC(F)(F)CC3)nc2cc1OCCCN1CCCC1; 55%

# input # query: Population Apoptotic (%) of entry Cl.Cl.Nc1ncnc2c1c(-c1cccc(OCc3ccccc3)c1)cn2[C@H]1C[C@@H](CN2CCC2)C1
# output 74%
